System: HCT-15
Please respond with reported GI50 for every item in the list.
Express the result in µM but write the number alone.

Request: Observed GI50 on HCT-15 for COCC(/N=C\N1CCCc2ccccc2[C@@H]1CCCCl)C(C)(C)C (stereo not given in full) , please.
Response: 41.9

Request: Follow-up item: `O=C(c1ccc(Cl)c(Cl)c1)N(C(=O)N1CCN(c2ccccc2)CC1)S(=O)(=O)c1ccccc1`
Response: 24.5

* * *

Test system: COLO 205
Test: NCI tumour cell line growth inhibition, 48 h
Activity calls are given as the source filed them. Rule as the data show it: active = GI50 up to about 1.1 µM and inactive = higher.
Would you mind answering with one of these outcomes? active, inactive

Request: Each molecule tested received a call. Report the one for `CC1=C(O)C(O)=C(C2=C(O)C(O)=C(C)C(=O)C2=O)C(=O)C1=O` .
Response: inactive

Request: Follow-up item: `CCCCCCc1cc2cc(-c3cn4ccccc4n3)c(=O)oc2cc1O`
Response: inactive

Request: Follow-up item: `Cc1cccc2c(N)c3cccc(C(=O)NCCN(C)C)c3nc12`
Response: active

Request: Follow-up item: O=C(OC1C(Oc2ccccc2COC(=O)C2(O)C=CCCC2=O)OC(CO)C(O)C1O)c1ccccc1 (stereo unspecified)
Response: inactive

Request: Follow-up item: `O=C(O)[C@@H](NS(=O)(=O)c1ccc([N+](=O)[O-])cc1)c1ccccc1`
Response: inactive

Request: Follow-up item: Nc1ncnc2c1nnn2C1C=C(CO)C(O)C1O (stereo unspecified)
Response: inactive
